# method_notes: MM1S cell viability effects, profiling panel, calcein-AM fluorescence, 48 h, basal (AID 1165);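 also: viability of MM1S multiple myeloma cells under basal unstimulated conditions; test concentration not given here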
# assay_context: higher = more signal
Label Not met if z-score falls below -0.7; label Met in every other case.

Qu. Quick check: does `CCCC[C@H]1OB(O)C[C@H]2C1=C(C)C[C@H]1C(=O)C=CC(=O)[C@H]12` have z-score greater than or equal to -0.7?
Ans. Not met

Qu. Proceed to `Cc1ccc(F)cc1S(=O)(=O)N[C@@H]1CCN(Cc2ccc3[nH]ccc3c2)C1`
Ans. Not met

Qu. Also `CCCC[C@@H](O)C1=C(COC)Cn2c(=O)n(-c3ccccc3)c(=O)n2[C@H]1CO` ?
Ans. Met

Qu. // next record `COCCOC(=O)N1C(=O)[C@@]2(c3cc(C#CCCO)ccc31)[C@H](c1ccc(O)cc1)N1[C@H](c3ccccc3)[C@H](c3ccccc3)OC(=O)[C@H]1[C@@H]2C(=O)N1CCc2cc(OC)c(OC)cc2C1`
Ans. Met

Qu. Same read-out for `COCCOC(=O)N1C(=O)[C@@]2(c3cc(C#CCC(C(=O)OC)C(=O)OC)ccc31)[C@H](C(=O)N1CCc3cc(OC)c(OC)cc3C1)[C@H]1C(=O)O[C@H](c3ccccc3)[C@H](c3ccccc3)N1[C@@H]2c1ccc(O)cc1` ?
Ans. Met

Qu. Would you kindly repeat that for `CN(C)CCCCNC(=O)[C@H]1C[C@H]2C(=O)N[C@@H](Cc3ccccc3)C(=O)N2[C@H]1c1cccc(OCCO)c1` ?
Ans. Met

Qu. Here is the next compound: `CC(C)CNC(=O)[C@@H]1c2ccccc2C(=O)N(C(C)C)[C@H]1c1ccc(CO)cc1`
Ans. Met

Qu. // same read-out, input: C=CCC(OC(C)=O)[C@@H]1[C@@H](N(Cc2cc3ccccc3o2)C(=O)c2cccc3ccccc23)c2cc(OCCCO)ccc2N1C(=O)c1ccc2ccccc2c1 (some centres undefined)
Ans. Met

Qu. Can you handle `COC(=O)[C@@]1(Cc2ccccc2)[C@@H]2[C@@H](CC(=O)[C@H]2CC(=O)C(=O)N(C)C)CN1C(=O)c1ccccc1` next?
Ans. Not met

Qu. Entry to check: `N[C@@H](Cc1ccccc1)Cn1cc(C2(O)CCCCC2)nn1`
Ans. Not met

Qu. // same read-out, input: `CCOC(=O)C1=CC[C@@H](c2ccccc2Cl)N(S(=O)(=O)c2ccc(C)cc2)[C@H]1c1cccc(OC)c1`
Ans. Not met

Qu. And then C=CCC(OC(C)=O)[C@@H]1[C@@H](N(Cc2ccc(-c3ccccc3)cc2)C(=O)c2ccc(-c3ccccc3)cc2)c2cc(OCCCO)ccc2N1C(=O)c1ccc2ccccc2n1 (some centres undefined) , what is it?
Ans. Met

Qu. Another compound to look at: CC(C)C[C@@H]1NC(=O)[C@@]23C(=O)N[C@@H](Cc4ccccc4)C2[C@H](C)[C@@]2(C)O[C@H]2C3/C=C/C/C=C\CNC(=O)[C@@H](CC(C)C)NC1=O (some centres undefined)
Ans. Met
